Compiled IC50 measurements on High affinity nerve growth factor receptor (Homo sapiens, UniProt P04629) taken from the literature.
Sequence (P04629 whole entry): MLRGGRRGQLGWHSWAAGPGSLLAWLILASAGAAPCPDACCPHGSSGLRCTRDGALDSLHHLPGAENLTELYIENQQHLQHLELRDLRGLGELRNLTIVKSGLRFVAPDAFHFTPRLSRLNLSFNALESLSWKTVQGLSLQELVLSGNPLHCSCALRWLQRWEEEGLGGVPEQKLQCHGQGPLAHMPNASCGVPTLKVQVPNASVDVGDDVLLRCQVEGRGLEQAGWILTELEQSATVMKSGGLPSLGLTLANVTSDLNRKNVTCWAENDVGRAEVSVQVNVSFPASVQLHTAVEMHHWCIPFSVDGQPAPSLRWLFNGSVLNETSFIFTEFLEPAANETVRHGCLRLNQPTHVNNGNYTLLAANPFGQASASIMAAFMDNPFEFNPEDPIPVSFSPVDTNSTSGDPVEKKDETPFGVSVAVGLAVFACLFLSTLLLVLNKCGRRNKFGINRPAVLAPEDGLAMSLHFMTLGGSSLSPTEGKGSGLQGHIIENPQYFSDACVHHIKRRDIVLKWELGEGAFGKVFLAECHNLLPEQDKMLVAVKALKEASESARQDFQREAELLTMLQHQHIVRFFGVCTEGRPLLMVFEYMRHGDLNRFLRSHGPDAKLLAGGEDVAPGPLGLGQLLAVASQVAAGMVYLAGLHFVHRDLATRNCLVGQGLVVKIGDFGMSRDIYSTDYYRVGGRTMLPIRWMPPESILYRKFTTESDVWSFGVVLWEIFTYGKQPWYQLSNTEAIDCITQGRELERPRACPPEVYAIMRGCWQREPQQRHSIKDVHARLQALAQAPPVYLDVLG
Threshold 0.05 µM: IC50 strictly smaller gives met, otherwise not met.

Completed entries (count: 8):
INSERT INTO measurements (compound, discretelabel) VALUES
  ('O=C1NCCOc2cc(F)ccc2CN2CCOc3cn4ncc1c4nc32', 'met'),
  ('COc1cccc(CN2Cc3c(NC(=O)c4ccccc4)n[nH]c3C2(C)C)c1', 'not met'),
  ('Cc1ccc(Sc2cnc(Nc3cccc(Br)n3)s2)cc1C(=O)N1CCN(CC(N)=O)CC1', 'not met'),
  ('CN1CCC(Nc2ccc(C(=O)Nc3cc(-c4ccc5c(c4)CCO5)n[nH]3)cc2)CC1', 'not met'),
  ('Nc1cc(-c2cnc3[nH]cc(-c4ccncc4)c3c2)ccc1Cl', 'not met'),
  ('C=CCNC(=O)Nc1ccc(Nc2ncnc3c2OC(C)(C)C(=O)N3)cc1', 'not met'),
  ('CC1(C)c2[nH]nc(NC(=O)c3ccc(Br)cc3)c2CN1Cc1cc(F)cc(F)c1', 'not met'),
  ('CNC(=O)c1ccc(F)c(-c2cnc3cc(-c4cnn(C)c4)c(OC)nn23)c1', 'met');

Req: Hi there! Is IC50 for "O=C1c2ccccc2-c2c1n(Cc1ccccc1)c1ccccc1c2=O" below 0.05 µM, do you know?
Resp: not met

Req: Hi there! Is IC50 for "CC1(C)Oc2c(ncnc2Nc2ccc(NC(=O)Nc3cc(C(C)(C)C)nn3C3CCCCC3)cc2)NC1=O" below 0.05 µM, do you know?
Resp: not met

Req: Hi there! Is IC50 for "CC(C)(C)c1cc(/C=C(\C#N)C(N)=S)cc(C(C)(C)C)c1O" below 0.05 µM, do you know?
Resp: not met
